Entry source: ChEMBL document CHEMBL4359857

// values below are reported pIC50
Test system: MCF7-DOX
Assay: Cytotoxicity against human MCF7/Dox cells assessed as reduction in cell viability after 48 hrs by MTT assay
Type: cell-based
pIC50 is a log-scale quantity: -log10 of the concentration expressed in molar.

## Task Requested field: pIC50. Item: COc1cc(O)c(C(=O)/C=C/c2cccc(N3CCN(C)CC3)c2)c(OC)c1
## Result 4.21

## Task # get_value(readout='pIC50', item= COc1cc(O)c(C(=O)/C=C/c2cccc(N3CCNCC3)c2)c(OC)c1 )
## Result 4.00

## Task Form field: reported pIC50 of COc1cc(O)c(C(=O)/C=C/c2ccc(N3CCN(C(=O)OC(C)(C)C)CC3)cc2)c(OC)c1
## Result 4.33

## Task Which measured pIC50 value corresponds to COc1cc(OC)c(C(=O)/C=C/c2ccc(Cl)cc2)c(O)c1CC=C(C)C ?
## Result 4.36
